system: Amine oxidase [flavin-containing] B (Bos taurus)
assay_text: Inactivation of monoamine oxidase measured as kinetic constant, KI at 0.8-4 conc range
property_label: pKi
API: returns pKi as number; meaning -log10 of concentration in mol/L.

// query In one line, give reported pKi of the entry "CN(C)C/C=C/c1ccccc1" .
// result 2.88
